assay-target: human RXFP1, full-length (human), Q9HBX9
Sequence (Q9HBX9 whole entry): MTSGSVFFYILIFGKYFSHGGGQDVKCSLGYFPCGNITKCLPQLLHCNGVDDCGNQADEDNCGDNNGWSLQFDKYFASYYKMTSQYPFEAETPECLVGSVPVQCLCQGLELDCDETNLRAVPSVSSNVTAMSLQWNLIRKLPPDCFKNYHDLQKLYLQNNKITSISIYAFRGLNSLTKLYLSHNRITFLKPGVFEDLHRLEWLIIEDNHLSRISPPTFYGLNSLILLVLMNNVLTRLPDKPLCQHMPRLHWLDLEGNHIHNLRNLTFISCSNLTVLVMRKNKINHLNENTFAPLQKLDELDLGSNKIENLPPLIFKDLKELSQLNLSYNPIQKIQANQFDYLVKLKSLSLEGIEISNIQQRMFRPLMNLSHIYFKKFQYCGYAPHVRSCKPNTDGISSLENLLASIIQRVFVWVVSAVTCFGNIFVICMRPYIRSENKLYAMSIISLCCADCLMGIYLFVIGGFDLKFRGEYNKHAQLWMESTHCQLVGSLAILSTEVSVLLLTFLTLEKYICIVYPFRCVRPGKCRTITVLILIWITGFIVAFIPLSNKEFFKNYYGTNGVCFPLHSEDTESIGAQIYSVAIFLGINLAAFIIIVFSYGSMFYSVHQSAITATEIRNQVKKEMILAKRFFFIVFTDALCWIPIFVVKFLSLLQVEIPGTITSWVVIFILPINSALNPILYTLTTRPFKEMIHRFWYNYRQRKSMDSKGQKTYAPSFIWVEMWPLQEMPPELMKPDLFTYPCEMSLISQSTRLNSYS
procedure-text: cell-based or functional assay
experimental-endpoint: Potency Assay EC50 (nM), transient hRXFP1 cAMP assay
Reply with just the number (in nM).

Worked set:
Query: Need Potency Assay EC50 (nM), transient hRXFP1 cAMP assay of SEQ ID NO: 66 (Fc fusion) DKTHTCPPCPAPEAAGGPSVFLFPPKPKDTLMISRTPEVTCVVVDVSHEDPEVKFNWYVDGVEVHNAKTKPREEQYNSTYRVVSVLTVLHQDWLNGKEYKCKVSNKALAAPIEKTISKAKGQPREPQVYTLPPSRDELTKNQVSLTCLVKGFYPSDIAVEWESNGQPENNYKTTPPVLDSDGSFFLYSKLTVDKSRWQQGNVFSCSVLHEALHSHYTQKSLSLSPGKGGSDSWQEEVIKLCGRELVRAQIAICGKSTGGGEGGGEGGGEGRQLYSALANKCCHVGCTKRSLAQFC , thanks.
Reply: 4.2

Query: Need Potency Assay EC50 (nM), transient hRXFP1 cAMP assay of SEQ ID NO: 210 (Fc fusion) DKTHTCPPCPAPEAAGGPSVFLFPPKPKDTLMISRTPEVTCVVVDVSHEDPEVKFNWYVDGVEVHNAKTKPREEQYNSTYRVVSVLTVLHQDWLNGKEYKCKVSNKALAAPIEKTISKAKGQPREPQVYTLPPSRDELTKNQVSLTCLVKGFYPSDIAVEWESNGQPENNYKTTPPVLDSDGSFFLYSKLTVDKSRWQQGNVFSCSVLHEALHSHYTQKSLSLSPGGGSDSWMEEVIKLCGRELVRAQIAICGKSTGGEGGGEEGGGEGGQLYSALANKCCHVGCTKRSLARFC , thanks.
Reply: 140

Further cases:
Query: Need Potency Assay EC50 (nM), transient hRXFP1 cAMP assay of SEQ ID NO: 206 (Fc fusion) DKTHTCPPCPAPEAAGGPSVFLFPPKPKDTLMISRTPEVTCVVVDVSHEDPEVKFNWYVDGVEVHNAKTKPREEQYNSTYRVVSVLTVLHQDWLNGKEYKCKVSNKALAAPIEKTISKAKGQPREPQVYTLPPSRDELTKNQVSLTCLVKGFYPSDIAVEWESNGQPENNYKTTPPVLDSDGSFFLYSKLTVDKSRWQQGNVFSCSVLHEALHSHYTQKSLSLSPGKGGSDSWMEEVIKLCGRELVRAQIAICGKSTGGGEGGGEGGGEGRQLYSALANKCCHVGCTKRSLARFC , thanks.
Reply: 2.9

Query: Need Potency Assay EC50 (nM), transient hRXFP1 cAMP assay of SEQ ID NO: 207 (Fc fusion) DKTHTCPPCPAPEAAGGPSVFLFPPKPKDTLMISRTPEVTCVVVDVSHEDPEVKFNWYVDGVEVHNAKTKPREEQYNSTYRVVSVLTVLHQDWLNGKEYKCKVSNKALAAPIEKTISKAKGQPREPQVYTLPPSRDELTKNQVSLTCLVKGFYPSDIAVEWESNGQPENNYKTTPPVLDSDGSFFLYSKLTVDKSRWQQGNVFSCSVLHEALHSHYTQKSLSLSPGKGGSDSWMEEVIKLCGRELVRAQIAICGKSTGGGEGGGEGGGEGGGQLYSALANKCCHVGCTKRSLARFC , thanks.
Reply: 16

Taken from patent US20230340058A1.
